Target: T1, FZD4 CRD (Homo sapiens, UniProt Q9ULV1)
T1 construct: E42-V167; GPI anchor signal (C); expressed in transfected cells; host or cells: CHO cells, lentiviral pLenti-puro
T1 sequence (Q9ULV1 42-167): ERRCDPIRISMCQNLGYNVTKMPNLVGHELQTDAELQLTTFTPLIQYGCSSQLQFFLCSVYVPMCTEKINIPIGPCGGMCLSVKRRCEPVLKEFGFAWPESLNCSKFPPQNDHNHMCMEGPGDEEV
Assay: Flow cytometry of anti-FZD5 Fab binding to CHO cells overexpressing Frizzled CRD
Quantity Kind: Median fluorescence, Frizzled CRD overexpressed on CHO cells: FZD4

INSERT INTO measurements (molecule, measurement) VALUES
  ('Fab-2899: anti-FZD5 Fab with antibody variable region Fv-2899; CDR SEQ ID NOs: 35, 36, 38, 77, 114, 153 (antibody, V domains shown) VH: EVQLVESGGGLVQPGGSLRLSCAASGFNLYYYYMHWVRQAPGKGLEWVASIYPSSGSTSYADSVKGRFTISADTSKNTAYLQMNSLRAEDTAVYYCARGALDYWGQGTLVTVSS VL: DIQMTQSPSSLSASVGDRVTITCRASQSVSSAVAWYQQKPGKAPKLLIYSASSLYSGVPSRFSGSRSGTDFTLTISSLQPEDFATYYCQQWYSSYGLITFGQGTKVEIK', 11.86);
